procedure-details: qHTS assay to identify small molecule agonists of H2AX - cell viability counter screen (AID 1224847); note: nearly all actives have a fitted effect of over 30% in size
experimental-setup: CHO-K1 viability, CellTiter-Glo luminescence, 3 h; series mostly up to 70.9 µM
Inconclusive results are not listed. The source made the active and inactive calls. Calls come from the whole dose curve.
Labels: Y for active, N for inactive

compound: OCCCCCCCCCCCCBr
group: Y
--
compound: Cc1cc(O)c(C(C)(C)C)cc1C(C)(C)C
group: Y
--
compound: CC(C)CCCCCCCCCCCCCCC(=O)O
group: Y
--
compound: OCCN(CCO)c1nc(N2CCCCC2)c2nc(N(CCO)CCO)nc(N3CCCCC3)c2n1
group: N
--
compound: Cc1cc(O)c(Cl)c(C)c1Cl
group: Y
--
compound: O=C(Nc1cccc([N+](=O)[O-])c1)c1cc2ccccc2cc1O
group: Y
--
compound: CCCC1O[C@@H]2C[C@H]3[C@@H]4CCC5=CC(=O)C=C[C@]5(C)[C@H]4[C@@H](O)C[C@]3(C)[C@]2(C(=O)CO)O1 (some centres undefined)
group: N
--
compound: CSc1ccc(C(=O)c2[nH]c(=O)[nH]c2C)cc1
group: N
--
compound: CC1=C(C(=O)OC(C)C)C(c2cccc([N+](=O)[O-])c2)C(C(=O)OC2CN(C(c3ccccc3)c3ccccc3)C2)=C(N)N1 (centres undefined)
group: Y
--
compound: Cc1oc(-c2ccccc2)nc1CCC(=O)c1ccc(CC2SC(=O)NC2=O)cc1 (centres undefined)
group: N
--
compound: CCC(N)(CO)CO
group: N
--
compound: N#CSc1ccc(N)c([N+](=O)[O-])c1
group: N
--
compound: Nc1ccc2c3c(cccc13)-c1ccccc1-2
group: N
--
compound: CCCC/C=C/CCCCO
group: N
--
compound: CCN(CCC#N)c1ccc(N=Nc2c(Cl)cc([N+](=O)[O-])cc2Cl)cc1
group: Y
--
compound: CN(C)[C@@H]1C(=O)C(C(N)=O)=C(O)[C@@]2(O)C(=O)C3=C(O)c4c(O)cccc4C[C@H]3C[C@@H]12
group: N
--
compound: O=C1C=CC(=O)N1
group: Y
--
compound: COC(=O)c1cc(Cl)ccc1OC
group: N
--
compound: O=C(Nc1cccc(C(F)(F)F)c1)c1cc(Br)cc(Br)c1O
group: Y
--
compound: CC(C)(C)CC(C)(C)c1ccc(O)c(Cc2ccc(Cl)cc2Cl)c1
group: Y
--
compound: Cc1c(C)c2c(c(C)c1OC(=O)CCC(=O)O)CC[C@@](C)(CCC[C@H](C)CCC[C@H](C)CCCC(C)C)O2
group: N
--
compound: Nc1ccc(N)c2ccccc12
group: Y
--
compound: CCCCCCCCOc1ccccc1C(=O)Nc1ccc(C(=O)OCC[N+](C)(CC)CC)cc1
group: Y
--
compound: COc1cc(/C=C/C(=O)O[C@H]2CC[C@]34C[C@]35CC[C@]3(C)[C@@H]([C@H](C)CCC=C(C)C)CC[C@@]3(C)[C@@H]5CC[C@H]4C2(C)C)ccc1O
group: N
--
compound: CCCCCOC(=O)CCCC
group: N
--
compound: CCC(C)Nc1ccc(NC(C)CC)cc1 (centres undefined)
group: Y
--
compound: CCCCCCCCCCCCCCCCCC[N+](C)(C)Cc1ccccc1
group: Y
--
compound: CC/C(=C(\c1ccc(O)cc1)c1ccc(OCCN(C)C)cc1)c1ccccc1
group: Y
--
compound: Cc1[nH]cnc1C[C@H]1CCc2c(C)c3ccccc3n2C1=O
group: Y
--
compound: Cc1ccc(-n2nc(C(C)(C)C)cc2NC(=O)Nc2ccc(OCCN3CCOCC3)c3ccccc23)cc1
group: N
--
compound: CCOc1nc2cccc(C(=O)OC(C)OC(=O)OC3CCCCC3)c2n1Cc1ccc(-c2ccccc2-c2nn[nH]n2)cc1 (centres undefined)
group: Y
--
compound: C[C@@H](NCCCc1cccc(C(F)(F)F)c1)c1cccc2ccccc12
group: Y
--
compound: CC(C)OC(=O)c1cc2c(OCC(O)CNC(C)(C)C)cccc2[nH]1 (centres undefined)
group: N
--
compound: Cc1[nH]nc2c1N=C(c1ccccc1Cl)c1cc([N+](=O)[O-])ccc1N2
group: Y
--
compound: CSc1ccc(/C=C2/C(C)=C(CC(=O)O)c3cc(F)ccc32)cc1
group: N
--
compound: CSc1cnc(C)cn1
group: N
--
compound: N=C1C=CC(=C(c2ccc(N)cc2)c2ccc(N)cc2)C=C1
group: Y
--
compound: O=C(O)c1ccc(Cl)c(Cl)c1
group: N
--
compound: Clc1ccc2n[nH]nc2c1
group: N
--
compound: C[C@@H]1C[C@H]2[C@@H]3CCC4=CC(=O)C=C[C@]4(C)[C@@]3(Cl)[C@@H](O)C[C@]2(C)[C@@]1(OC(=O)c1ccco1)C(=O)CCl
group: N
--
compound: CCCCC(CC)CN=C(N)NC(N)=NCCCCCCN=C(N)NC(N)=NCC(CC)CCCC (centres undefined)
group: Y
--
compound: CC[C@H]1O[C@]2(CC[C@@H]1C)C[C@@H]1C[C@@H](C/C=C(\C)C[C@@H](C)/C=C/C=C3\CO[C@@H]4[C@H](O)C(C)=C[C@@H](C(=O)O1)[C@]34O)O2
group: Y
--
compound: O=c1cccccc1O
group: N
--
compound: O=c1[nH]sc2ccccc12
group: Y
